- TARGET_UNDER_TEST: xanthine oxidase (UniProt P80457)
- PROTOCOL_NOTES: Inhibition of production of uric acid by xanthine/xanthine oxidase
- MEASUREMENT_CONTEXT: xanthine oxidase 0.024 units/mL, 100 μM xanthine, pH 7.5, 25° C.; mean ± SEM of triplicate experiments
VALUE_KIND: IC50 (µM)

Data request, read-out IC50, for C[C@H](/C=C/[C@@]1(O)[C@H](C)CC(=O)CC1(C)C)OC1OC(COC(=O)/C=C/c2ccc(O)c(O)c2)C(O)C(O)C1O (stereo partly shown) [Compound 1, 6′-O-caffeoylampelopsisionoside] 93

State the recorded IC50 for this entry: C/C(=C\CO)CO[C@@H]1OC(COC(=O)/C=C/c2ccc(O)c(O)c2)[C@@H](O)C(O)C1O (stereo partly shown) [Compound 5] 80

Fill in: IC50 of CC(=O)/C=C/C1=C(C)C(O)C(O[C@@H]2OC(COC(=O)/C=C/c3ccc(O)c(O)c3)[C@@H](O)C(O)C2O)CC1(C)C (stereo partly shown) [Compound 3, 6′-O-Caffeoylsonchuinoside C] is ___ 73.2

So what's the measured IC50 for this one? COc1cc(CCCO)cc(OC)c1O[C@@H]1OC(COC(=O)/C=C/c2ccc(O)c(O)c2)[C@@H](O)C(O)C1O (stereo partly shown) [Compound 4, 6′-O-Caffeoyldihydrosyringin] 71.1
